Measured hERG current change (%, negative = inhibition) at 10uM, listed per entry for reference.
# target_system: human ether-à-go-go-related gene (hERG) potassium channel (human);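 further: peak tail current of the secondary pulse compared with the same well before compound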
# Sequence (Q12809 whole entry, looked up): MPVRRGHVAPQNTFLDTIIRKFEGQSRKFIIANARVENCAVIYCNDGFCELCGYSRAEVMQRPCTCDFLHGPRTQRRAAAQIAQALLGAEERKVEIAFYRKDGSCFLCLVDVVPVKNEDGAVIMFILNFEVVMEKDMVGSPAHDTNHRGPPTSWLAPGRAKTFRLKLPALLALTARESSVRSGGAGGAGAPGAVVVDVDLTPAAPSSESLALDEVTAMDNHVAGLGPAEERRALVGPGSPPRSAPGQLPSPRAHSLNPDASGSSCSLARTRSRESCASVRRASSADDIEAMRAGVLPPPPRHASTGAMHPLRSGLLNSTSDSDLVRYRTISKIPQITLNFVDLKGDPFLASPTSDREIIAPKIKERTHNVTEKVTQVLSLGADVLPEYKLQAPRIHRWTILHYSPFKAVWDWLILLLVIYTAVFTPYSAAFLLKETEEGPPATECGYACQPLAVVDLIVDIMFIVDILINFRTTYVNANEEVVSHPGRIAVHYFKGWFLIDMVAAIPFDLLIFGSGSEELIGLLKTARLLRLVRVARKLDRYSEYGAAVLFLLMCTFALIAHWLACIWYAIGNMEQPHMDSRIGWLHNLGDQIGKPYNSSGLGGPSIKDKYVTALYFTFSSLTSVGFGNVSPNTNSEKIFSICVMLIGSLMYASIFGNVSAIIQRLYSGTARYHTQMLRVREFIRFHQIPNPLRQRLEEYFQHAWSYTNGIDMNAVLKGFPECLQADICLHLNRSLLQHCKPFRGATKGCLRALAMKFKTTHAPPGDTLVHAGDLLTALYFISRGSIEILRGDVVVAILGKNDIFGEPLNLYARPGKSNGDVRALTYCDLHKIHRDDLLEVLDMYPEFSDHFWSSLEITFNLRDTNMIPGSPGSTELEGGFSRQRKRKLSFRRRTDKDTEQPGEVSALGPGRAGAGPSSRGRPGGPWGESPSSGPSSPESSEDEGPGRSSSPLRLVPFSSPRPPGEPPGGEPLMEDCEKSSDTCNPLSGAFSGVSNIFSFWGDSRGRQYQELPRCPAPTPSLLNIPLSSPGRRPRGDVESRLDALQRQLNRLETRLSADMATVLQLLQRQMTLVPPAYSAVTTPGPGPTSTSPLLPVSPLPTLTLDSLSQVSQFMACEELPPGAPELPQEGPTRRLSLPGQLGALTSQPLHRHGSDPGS
# protocol_summary: primary screen, population patch clamp on CHO cells stably expressing hERG; higher = less effect of the substance
The campaign covered roughly 310,000 compounds. About 14,000 (4.5%) showed an effect of 50% or more. The effect is printed as a negative number. The entries come from a sample that favours strong results as a whole.
Your answer should be a plain number; it is taken to be in %.

# example entries with known answers
CCC1Oc2ccccc2N(CC(=O)NCCCN2CCN(CC)CC2)C1=O (stereo not drawn)	2.97
CCC1Oc2ccc(C)cc2N(CC(=O)NCCCN2CCCC2)C1=O (stereo not drawn)	-34.7

// hERG current change (%, negative = inhibition) at 10uM lookup, compound = CCC1Oc2ccc(C)cc2N(CC(=O)NCCCN2CCN(Cc3ccccc3)CC2)C1=O (stereo not drawn) , result: -53.9

The measured values listed here are drawn from paper PMC4336329.
